Tested on: CCRF-CEM leukemia
runDescription: NCI-60 one-dose screen, 48 h
experimentalParameters: 10 µM unless noted
Compounds without any hit were thinned out: in the full panel of roughly 83,000, 20% have a hit. The source made the active and inactive calls. Rule for the calls: active = growth percent below 10; inactive = the rest.
The reply should be one of these categories: active, inactive

// return assay outcome for CN(C)CC1(C)Cc2ccsc2C1O (stereo unspecified)
inactive

Okay, and Cc1ccc(C(=O)N(CCCN)[C@@H](c2nc3cc(Cl)ccc3c(=O)n2Cc2ccccc2)C(C)C)cc1 ?
active

Okay, and CN1CCN(Cc2ccc(NC(=O)c3cccc(C#Cc4c(N)ncc5ccc(F)cc45)c3)cc2C(F)(F)F)CC1 ?
active

Okay, and COc1cc(/C=C2/C=C(c3ccc(C(C)(C)C)cc3)N(CCc3ccc(S(N)(=O)=O)cc3)C2=O)cc(OC)c1OC ?
inactive

Okay, and C=C1CC[C@@H]2[C@](C)(COC(C)=O)[C@H](OC(C)=O)CC[C@@]2(C)[C@@H]1CC(Nc1ccc(S(=O)(=O)Nc2nccs2)cc1)C1=CCOC1=O (stereo partly specified) ?
active

Okay, and O=C(Oc1ccc(CO[N+](=O)[O-])cc1)c1ccccc1 ?
active

Okay, and CCOC(=O)C(=CCC(C)C)C(=O)OCC ?
inactive

Okay, and CC(=O)/C=C/c1ccc(N(C)Cc2ccc(C(C)(C)C)cc2)cc1 ?
active

Okay, and Clc1ccc(/C=N\N2CCCCCC2)cc1 ?
inactive

Okay, and O=C(NNc1ccccc1)c1ncc[nH]1 ?
inactive

Okay, and COc1cc(CO)cc2cc3ccccc3nc12 ?
inactive
